test.name: Therapeutic index, ratio of HC10 for mouse RBC to IC50 for cytotoxicity against human HeLa cells
Type: toxicity, cell-based
measurement.context: mouse RBC and HeLa cells, read-out: TI
Residues, ends and D or L forms follow the SMILES beside them.
Measured selectivity ratio, listed per entry for reference.
In your answer, state the number alone without any accompanying words.

Consider the following illustrative entries.
{"compound": "CC(C)C[C@H](NC(=O)[C@H](CC(C)C)NC(=O)[C@H](CCCCN)NC(=O)[C@H](CCC(=O)O)NC(=O)[C@H](CC(C)C)NC(=O)[C@H](CC(C)C)NC(=O)[C@H](CCCCN)NC(=O)[C@H](CCCCN)NC(=O)[C@H](CC(C)C)NC(=O)[C@H](CC(C)C)NC(=O)[C@H](CCCCN)NC(=O)[C@H](CCCCN)NC(=O)[C@H](CC(C)C)NC(=O)[C@@H](N)CC(C)C)C(N)=O (H-LLKKLLKKLLEKLL-NH2)", "quantitative.result": 3.15}
{"compound": "CC(C)C[C@H](NC(=O)[C@H](CCCCN)NC(=O)[C@H](CC(C)C)NC(=O)[C@H](CC(C)C)NC(=O)[C@H](CCCCN)NC(=O)[C@H](CCCCN)NC(=O)[C@H](CC(C)C)NC(=O)[C@H](CC(C)C)NC(=O)[C@H](CCCCN)NC(=O)[C@H](CCCCN)NC(=O)[C@H](CC(C)C)NC(=O)[C@H](CC(C)C)NC(=O)[C@H](CCCCN)NC(=O)[C@H](CCCCN)NC(=O)[C@H](CC(C)C)NC(=O)[C@H](CC(C)C)NC(=O)[C@H](CCCCN)NC(=O)[C@@H](N)CCCCN)C(N)=O (H-KKLLKKLLKKLLKKLLKL-NH2)", "quantitative.result": 1.8}
{"compound": "CC(C)C[C@H](NC(=O)[C@H](CCCCN)NC(=O)[C@H](CC(C)C)NC(=O)[C@H](CC(C)C)NC(=O)[C@H](CCCCN)NC(=O)[C@H](CCCCN)NC(=O)[C@H](CC(C)C)NC(=O)[C@H](CC(C)C)NC(=O)[C@H](CCCCN)NC(=O)[C@H](CCCCN)NC(=O)[C@H](CC(C)C)NC(=O)[C@H](CC(C)C)NC(=O)[C@@H](N)CCCCN)C(N)=O (H-KLLKKLLKKLLKL-NH2)", "quantitative.result": 6.79}
{"compound": "CC(C)C[C@H](NC(=O)[C@H](CC(C)C)NC(=O)[C@H](CCCCN)NC(=O)[C@H](CCCCN)NC(=O)[C@H](CC(C)C)NC(=O)[C@H](CC(C)C)NC(=O)[C@H](CCCCN)NC(=O)[C@H](CCCCN)NC(=O)[C@H](CC(C)C)NC(=O)[C@H](CC(C)C)NC(=O)[C@H](CCCCN)NC(=O)[C@H](CCCCN)NC(=O)[C@H](CC(C)C)NC(=O)[C@@H](N)CC(C)C)C(N)=O (H-LLKKLLKKLLKKLL-NH2)", "quantitative.result": 1.83}

# context switch: different compound, same selectivity ratio
Data point: CC(C)C[C@H](NC(=O)[C@H](CC(C)C)NC(=O)[C@H](CCCCN)NC(=O)[C@H](CCCCN)NC(=O)[C@H](CC(C)C)NC(=O)[C@H](CC(C)C)NC(=O)[C@H](CCCCN)NC(=O)[C@H](CCC(=O)O)NC(=O)[C@H](CC(C)C)NC(=O)[C@H](CC(C)C)NC(=O)[C@H](CCCCN)NC(=O)[C@H](CCCCN)NC(=O)[C@H](CC(C)C)NC(=O)[C@@H](N)CC(C)C)C(N)=O (H-LLKKLLEKLLKKLL-NH2) ; selectivity ratio = 3.41

src = ChEMBL document CHEMBL5584231
